- Test system: C5a anaphylatoxin chemotactic receptor 1 (Homo sapiens) (UniProt P21730)
- Sequence (P21730 whole entry): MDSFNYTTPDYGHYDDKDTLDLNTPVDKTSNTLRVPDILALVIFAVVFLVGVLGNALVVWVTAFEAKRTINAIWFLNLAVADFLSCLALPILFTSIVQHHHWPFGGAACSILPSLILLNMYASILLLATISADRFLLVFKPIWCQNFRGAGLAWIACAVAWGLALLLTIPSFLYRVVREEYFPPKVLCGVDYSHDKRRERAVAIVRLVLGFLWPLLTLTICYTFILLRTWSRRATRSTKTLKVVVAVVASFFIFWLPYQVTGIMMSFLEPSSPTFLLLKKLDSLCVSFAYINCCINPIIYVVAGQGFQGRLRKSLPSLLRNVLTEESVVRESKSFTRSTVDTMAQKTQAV
- Protocol description: Tested for […] to evaluate its ability to block C5a induced myeloperoxide (MPO release from neutrophils (for antagonists) or induce MPO release (for agonists)
compounds and their reported Release
Write the number in % without appending the unit.

The cases that follow already have their Release on record.
structure=CC[C@@H](C)[C@H](C(=O)N1CCC2(CCc3ccccc32)CC1)N1C(=O)N[C@H](CCCN=C(N)N)C1=O test_system="C5a anaphylatoxin chemotactic receptor 1 (Homo sapiens) (UniProt P21730)" uom=% reading=31
structure=CC(C)C[C@H](C(=O)N1CCC2(CCc3ccccc32)CC1)N1C(=O)N[C@H](CCCN=C(N)N)C1=O test_system="C5a anaphylatoxin chemotactic receptor 1 (Homo sapiens) (UniProt P21730)" uom=% reading=10
structure=Cc1ccccc1N1CCN(C(=O)[C@@H](CC2CCCCC2)N2C(=O)N[C@H](CCCN=C(N)N)C2=O)CC1 test_system="C5a anaphylatoxin chemotactic receptor 1 (Homo sapiens) (UniProt P21730)" uom=% reading=76
structure=N=C(N)NCCC[C@H]1NC(=O)N([C@H](CC2CCCCC2)C(=O)N2CCC3(CCc4ccccc43)CC2)C1=O test_system="C5a anaphylatoxin chemotactic receptor 1 (Homo sapiens) (UniProt P21730)" uom=% reading=86
structure=N=C(N)NCCC[C@H]1NC(=O)N([C@H](CC2CCCCC2)C(=O)N2CCC(c3ccccc3)CC2)C1=O test_system="C5a anaphylatoxin chemotactic receptor 1 (Homo sapiens) (UniProt P21730)" uom=% reading=88
structure=Cc1cccc(C)c1N1CCN(C(=O)[C@@H](CC2CCCCC2)N2C(=O)N[C@H](CCCN=C(N)N)C2=O)CC1 test_system="C5a anaphylatoxin chemotactic receptor 1 (Homo sapiens) (UniProt P21730)" uom=% reading=78

Switching to the query record.
Measured Release of Cc1ccc(N2CCN(C(=O)[C@@H](CC3CCCCC3)N3C(=O)N[C@H](CCCN=C(N)N)C3=O)CC2)c(C)c1 : 90
